STUDY SYSTEM: F508delCFTR (Homo sapiens, UniProt P13569, DEL508-508)
Construct: expressed in transfected cells; host or cells: CFBE41o- human lung-derived epithelial cells (CFBE41o-F508delCFTR-HRP), doxycycline-inducible
Sequence (P13569 with tags, fused parts or gaps DEL508-508): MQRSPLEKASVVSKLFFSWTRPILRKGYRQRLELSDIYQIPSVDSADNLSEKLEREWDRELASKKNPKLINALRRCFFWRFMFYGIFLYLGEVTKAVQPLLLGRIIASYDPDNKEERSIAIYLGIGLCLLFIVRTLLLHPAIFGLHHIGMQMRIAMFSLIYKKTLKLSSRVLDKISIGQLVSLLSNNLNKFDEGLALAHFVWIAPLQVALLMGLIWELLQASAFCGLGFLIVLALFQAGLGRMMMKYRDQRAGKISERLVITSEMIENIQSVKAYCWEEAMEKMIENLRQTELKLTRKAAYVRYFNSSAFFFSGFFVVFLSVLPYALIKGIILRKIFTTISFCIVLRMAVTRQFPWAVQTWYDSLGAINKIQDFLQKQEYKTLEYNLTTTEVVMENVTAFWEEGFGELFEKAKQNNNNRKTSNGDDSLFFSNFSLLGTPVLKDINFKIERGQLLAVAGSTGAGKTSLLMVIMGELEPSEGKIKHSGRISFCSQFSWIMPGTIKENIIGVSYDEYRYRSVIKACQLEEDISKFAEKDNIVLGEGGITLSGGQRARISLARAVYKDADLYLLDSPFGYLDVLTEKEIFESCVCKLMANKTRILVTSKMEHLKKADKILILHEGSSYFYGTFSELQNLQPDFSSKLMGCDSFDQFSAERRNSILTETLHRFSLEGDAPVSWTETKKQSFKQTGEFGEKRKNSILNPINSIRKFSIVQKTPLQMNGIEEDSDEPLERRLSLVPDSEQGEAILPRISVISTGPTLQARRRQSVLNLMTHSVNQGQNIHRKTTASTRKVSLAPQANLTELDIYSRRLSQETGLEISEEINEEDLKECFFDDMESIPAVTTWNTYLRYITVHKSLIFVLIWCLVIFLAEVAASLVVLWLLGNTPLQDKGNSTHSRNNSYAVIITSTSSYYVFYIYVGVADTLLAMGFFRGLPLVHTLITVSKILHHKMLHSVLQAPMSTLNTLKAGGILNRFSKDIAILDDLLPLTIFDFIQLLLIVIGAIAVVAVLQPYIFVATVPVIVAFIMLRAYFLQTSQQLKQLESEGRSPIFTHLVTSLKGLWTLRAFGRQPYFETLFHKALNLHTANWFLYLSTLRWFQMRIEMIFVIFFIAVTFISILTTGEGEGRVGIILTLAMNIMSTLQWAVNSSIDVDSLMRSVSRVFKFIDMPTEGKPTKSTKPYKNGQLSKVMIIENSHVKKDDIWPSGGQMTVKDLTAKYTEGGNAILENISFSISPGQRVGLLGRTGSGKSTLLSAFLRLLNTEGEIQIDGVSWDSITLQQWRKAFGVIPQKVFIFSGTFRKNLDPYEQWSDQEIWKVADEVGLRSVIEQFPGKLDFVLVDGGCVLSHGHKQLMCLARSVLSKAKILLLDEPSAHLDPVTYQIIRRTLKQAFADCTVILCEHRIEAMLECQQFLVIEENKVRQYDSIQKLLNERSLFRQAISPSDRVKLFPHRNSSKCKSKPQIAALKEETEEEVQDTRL
PROTOCOL TEXT: Cell Surface Expression-Horse Radish Peroxidase (CSE-HRP) assay, test compound with co-corrector;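 as to Maximum % activity (with co-corrector): percent of 2 µM positive control corrector over DMSO; co-corrector is that same compound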
Assay type: cell-based
CONDITION SET: maximum at any tested concentration, normalized to positive control, with 2 μM co-corrector
OBSERVATION TYPE: Maximum % activity (with co-corrector)

Field: example entries. Status: answers known.
COCCOc1ccc(Br)c2c1CCCC2C(=O)NS(=O)(=O)c1cccc2ccccc12 (stereo not shown) :: +++ (≥350)
COc1cccc2c1CCC2C(=O)NS(=O)(=O)c1ccc(S(C)(=O)=O)cc1 (stereo not shown) :: + (<150)
COc1ccc(C2CCC2)c2c1[C@H](C(=O)NS(=O)(=O)c1cccc3cnn(C)c13)CC2 (single isomer, unassigned) :: +++ (≥350)
COc1ccc(/C=C/c2ccccc2)c2c1CCCC2C(=O)NS(=O)(=O)c1cccc2ccccc12 (stereo not shown) :: +++ (≥350)
CCCS(=O)(=O)NC(=O)C1CCc2c(Cl)cccc21 (stereo not shown) :: + (<150)
COc1ccc(C2CCC2)c2c1C(C(=O)NS(=O)(=O)c1cccc3ncccc13)C2 (stereo not shown) :: +++ (≥350)
COc1cccc2c1CCC2C(=O)NS(=O)(=O)c1ccc(NC(C)=O)cc1C (stereo not shown) :: + (<150)
O=C(NS(=O)(=O)c1cccc(Cl)c1)C1CCc2c(Cl)cccc21 (stereo not shown) :: ++ (≥150 and <350)

Query: # lookup: Maximum % activity (with co-corrector) of O=C(NS(=O)(=O)c1cccc2ccccc12)C1CCc2c(Cl)cccc21 (stereo not shown)
Response: +++ (≥350)

Query: # lookup: Maximum % activity (with co-corrector) of COc1cccc2c1CCC2C(=O)NS(=O)(=O)c1ccccc1Cl (stereo not shown)
Response: ++ (≥150 and <350)

Query: # lookup: Maximum % activity (with co-corrector) of COc1cccc(COc2ccc(Br)c3c2CCCC3C(=O)N(Cc2cccc(OC)c2)S(=O)(=O)c2cccc3ccccc23)c1 (stereo not shown)
Response: ++ (≥150 and <350)

Query: # lookup: Maximum % activity (with co-corrector) of CCC1(C(=O)NS(=O)(=O)c2ccccc2C)CCc2c(Cl)cccc21 (stereo not shown)
Response: ++ (≥150 and <350)

---

STUDY SYSTEM: F508delCFTR (Homo sapiens, UniProt P13569, DEL508-508)
Construct: expressed in transfected cells; host or cells: CFBE41o- human lung-derived epithelial cells (CFBE41o-F508delCFTR-HRP), doxycycline-inducible
PROTOCOL TEXT: Cell Surface Expression-Horse Radish Peroxidase (CSE-HRP) assay, test compound with co-corrector
Type: cell-based
CONDITION SET: with 2 μM co-corrector
pEC50: −log10 of the molar value.
OBSERVATION TYPE: pEC50

Query: # query: pEC50 | item CCC1(C(=O)NS(=O)(=O)c2cccc3ccccc23)CCCc2c(OC)cccc21 (centres unmarked) | system: F508delCFTR (Homo sapiens, UniProt P13569, DEL508-508)
Response: > 5.52

Query: # query: pEC50 | item `COc1ccc(Br)c2c1CCC[C@@H]2C(=O)NS(=O)(=O)c1cccc2ccccc12` | system: F508delCFTR (Homo sapiens, UniProt P13569, DEL508-508)
Response: > 5.52

Query: # query: pEC50 | item COc1cccc2c1CCC2C(=O)NS(=O)(=O)c1ccc(NC(C)=O)cc1C (centres unmarked) | system: F508delCFTR (Homo sapiens, UniProt P13569, DEL508-508)
Response: ≤ 5.00

Query: # query: pEC50 | item O=C(NS(=O)(=O)c1cccc2ccccc12)C1(CCN2CCC(F)(F)C2)CCc2c(Cl)cccc21 (centres unmarked) | system: F508delCFTR (Homo sapiens, UniProt P13569, DEL508-508)
Response: > 5.52

Query: # query: pEC50 | item Cc1ccccc1S(=O)(=O)NC(=O)C1CCc2c(C3CCC3)cccc21 (centres unmarked) | system: F508delCFTR (Homo sapiens, UniProt P13569, DEL508-508)
Response: 5.00 to 5.52

Query: # query: pEC50 | item COc1ccc(-c2ccccc2Oc2ccccc2)c2c1CCCC2C(=O)NS(=O)(=O)c1cccc2ccccc12 (centres unmarked) | system: F508delCFTR (Homo sapiens, UniProt P13569, DEL508-508)
Response: > 5.52

Query: # query: pEC50 | item COc1cccc2c1CCC2C(=O)NS(=O)(=O)Cc1ccccc1 (centres unmarked) | system: F508delCFTR (Homo sapiens, UniProt P13569, DEL508-508)
Response: ≤ 5.00

Query: # query: pEC50 | item COc1cccc2c1CCC2C(=O)NS(=O)(=O)c1ccc2oc(=O)ccc2c1 (centres unmarked) | system: F508delCFTR (Homo sapiens, UniProt P13569, DEL508-508)
Response: ≤ 5.00

Query: # query: pEC50 | item O=C(NS(=O)(=O)c1cccc2ccccc12)C1CCCc2c(OC3CCCC3)ccc(Br)c21 (centres unmarked) | system: F508delCFTR (Homo sapiens, UniProt P13569, DEL508-508)
Response: > 5.52

Query: # query: pEC50 | item COc1ccc(Br)c2c1[C@H](C(=O)NS(=O)(=O)c1cccc3ncccc13)CCC2 (single isomer, unassigned) | system: F508delCFTR (Homo sapiens, UniProt P13569, DEL508-508)
Response: > 5.52

Query: # query: pEC50 | item CCC1(C(=O)NS(=O)(=O)c2cccc3ncccc23)CCc2c(Cl)cccc21 (centres unmarked) | system: F508delCFTR (Homo sapiens, UniProt P13569, DEL508-508)
Response: > 5.52

Query: # query: pEC50 | item COc1ccc(C2CCCO2)c2c1C(C(=O)NS(=O)(=O)c1cccc3ccccc13)CC2 (centres unmarked) | system: F508delCFTR (Homo sapiens, UniProt P13569, DEL508-508)
Response: > 5.52

Query: # query: pEC50 | item COc1ccc(Br)c2c1CCC2C(=O)NS(=O)(=O)c1ccccc1C (centres unmarked) | system: F508delCFTR (Homo sapiens, UniProt P13569, DEL508-508)
Response: 5.00 to 5.52

Query: # query: pEC50 | item CC(C)(O)COc1ccc(Br)c2c1CCCC2C(=O)NS(=O)(=O)c1cccc2ccccc12 (centres unmarked) | system: F508delCFTR (Homo sapiens, UniProt P13569, DEL508-508)
Response: > 5.52

Query: # query: pEC50 | item COc1cccc2c1CCC2C(=O)NS(=O)(=O)c1ccc(C)c([N+](=O)[O-])c1C (centres unmarked) | system: F508delCFTR (Homo sapiens, UniProt P13569, DEL508-508)
Response: 5.00 to 5.52

Query: # query: pEC50 | item `COc1ccc(C(F)(F)F)c2c1[C@@H](C(=O)NS(=O)(=O)c1cccc3ccccc13)CC2` | system: F508delCFTR (Homo sapiens, UniProt P13569, DEL508-508)
Response: 5.00 to 5.52

Query: # query: pEC50 | item Cc1ccc(S(=O)(=O)NC(=O)C2CCc3c(Cl)cccc32)nc1 (centres unmarked) | system: F508delCFTR (Homo sapiens, UniProt P13569, DEL508-508)
Response: ≤ 5.00
